- System: RARb:RXRa (NR concentration 270 nM, RXRa partner concentration 90 nM)
- PROCEDURE TEXT: PBM binding z-score (relative to random genomic background probes); higher = stronger binding; sequences stand for … in GC…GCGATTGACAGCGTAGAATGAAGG
# if value of PBM binding z-score reaches 2, tag true (1); if it stays below, tag false (0)

Kindly determine if PBM binding z-score recorded for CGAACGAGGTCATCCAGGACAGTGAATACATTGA is above or exactly 2.
true (1)

// inclusive: PBM binding z-score at least 2? input: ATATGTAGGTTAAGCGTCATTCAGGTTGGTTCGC
false (0)

###

- Tested on: RXRa DBDmut IVT, anti-RXR (DBD mutation: RXRa K156A/R161A, NR concentration 90 nM)
- PROCEDURE TEXT: PBM binding z-score (relative to random genomic background probes); higher = stronger binding; sequences stand for … in GC…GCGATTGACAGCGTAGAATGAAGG
Outcome label depends on PBM binding z-score relative to 4: at/above gives YES, below gives NO.

Answered examples (4):
# SEQUENCE CHAIN, ASSAY TARGET, LABEL CLASS
rows = [
    ("ACTTAGGGGTCAACGAGGTTATAGCACGCGTATA", "RXRa DBDmut IVT, anti-RXR (DBD mutation: RXRa K156A/R161A, NR concentration 90 nM)", "YES"),
    ("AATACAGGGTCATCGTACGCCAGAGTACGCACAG", "RXRa DBDmut IVT, anti-RXR (DBD mutation: RXRa K156A/R161A, NR concentration 90 nM)", "NO"),
    ("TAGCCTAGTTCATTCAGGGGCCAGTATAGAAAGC", "RXRa DBDmut IVT, anti-RXR (DBD mutation: RXRa K156A/R161A, NR concentration 90 nM)", "NO"),
    ("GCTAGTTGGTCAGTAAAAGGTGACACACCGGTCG", "RXRa DBDmut IVT, anti-RXR (DBD mutation: RXRa K156A/R161A, NR concentration 90 nM)", "NO"),
]

Is the recorded value of PBM binding z-score equal to or greater than 4 for this sequence? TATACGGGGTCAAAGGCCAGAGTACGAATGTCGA
YES

Assess whether reported PBM binding z-score for ACTCGGAGGTCAAAGGTCAGAGCTACGCCAGTGA sits at 4 or higher.
NO

Evaluate TGTCAAAGGTCAAAGGTAACGTAAGTATCCACAC : PBM binding z-score at minimum 4?
NO

Identify whether the reported PBM binding z-score of the following sequence is 4 or greater: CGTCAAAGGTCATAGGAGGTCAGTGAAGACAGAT
NO

In plain terms: is recorded PBM binding z-score at least 4 for CCGAGTAGGTTACGAGGGGTCATTCAGTGCGAAT ?
NO

Given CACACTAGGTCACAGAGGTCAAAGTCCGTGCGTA , state whether its PBM binding z-score is at least 4.
NO

Could you please find out whether GCTTAGGGGTCAAAGGTTATAGCATGAATAGAAT has PBM binding z-score that meets 4 or exceeds it?
YES

###

- System: LXRa homodimer (NR concentration 270 nM)
- PROCEDURE TEXT: PBM binding z-score (relative to random genomic background probes); higher = stronger binding; sequences stand for … in GC…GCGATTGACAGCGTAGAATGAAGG
In this section we review reported PBM binding z-score values for a set of sequences.
Write the number on its own, no unit after it.

# count of solved cases: 2
# SEQUENCE CHAIN, PBM binding z-score
measured = [
    ("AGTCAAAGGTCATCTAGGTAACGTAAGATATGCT", 4.61),
    ("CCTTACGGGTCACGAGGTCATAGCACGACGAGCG", 2.73),
]

Any idea what its PBM binding z-score is? The sequence is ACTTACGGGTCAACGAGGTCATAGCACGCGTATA
3.72

Please report the recorded PBM binding z-score for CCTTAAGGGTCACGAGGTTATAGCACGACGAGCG .
0.987

Need PBM binding z-score, item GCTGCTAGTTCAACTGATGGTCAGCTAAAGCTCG
-0.53
